- measured-on: GluN2B-containing NMDA receptors (Homo sapiens)
- Sequence (Q13224 27-1484, other chains not shown): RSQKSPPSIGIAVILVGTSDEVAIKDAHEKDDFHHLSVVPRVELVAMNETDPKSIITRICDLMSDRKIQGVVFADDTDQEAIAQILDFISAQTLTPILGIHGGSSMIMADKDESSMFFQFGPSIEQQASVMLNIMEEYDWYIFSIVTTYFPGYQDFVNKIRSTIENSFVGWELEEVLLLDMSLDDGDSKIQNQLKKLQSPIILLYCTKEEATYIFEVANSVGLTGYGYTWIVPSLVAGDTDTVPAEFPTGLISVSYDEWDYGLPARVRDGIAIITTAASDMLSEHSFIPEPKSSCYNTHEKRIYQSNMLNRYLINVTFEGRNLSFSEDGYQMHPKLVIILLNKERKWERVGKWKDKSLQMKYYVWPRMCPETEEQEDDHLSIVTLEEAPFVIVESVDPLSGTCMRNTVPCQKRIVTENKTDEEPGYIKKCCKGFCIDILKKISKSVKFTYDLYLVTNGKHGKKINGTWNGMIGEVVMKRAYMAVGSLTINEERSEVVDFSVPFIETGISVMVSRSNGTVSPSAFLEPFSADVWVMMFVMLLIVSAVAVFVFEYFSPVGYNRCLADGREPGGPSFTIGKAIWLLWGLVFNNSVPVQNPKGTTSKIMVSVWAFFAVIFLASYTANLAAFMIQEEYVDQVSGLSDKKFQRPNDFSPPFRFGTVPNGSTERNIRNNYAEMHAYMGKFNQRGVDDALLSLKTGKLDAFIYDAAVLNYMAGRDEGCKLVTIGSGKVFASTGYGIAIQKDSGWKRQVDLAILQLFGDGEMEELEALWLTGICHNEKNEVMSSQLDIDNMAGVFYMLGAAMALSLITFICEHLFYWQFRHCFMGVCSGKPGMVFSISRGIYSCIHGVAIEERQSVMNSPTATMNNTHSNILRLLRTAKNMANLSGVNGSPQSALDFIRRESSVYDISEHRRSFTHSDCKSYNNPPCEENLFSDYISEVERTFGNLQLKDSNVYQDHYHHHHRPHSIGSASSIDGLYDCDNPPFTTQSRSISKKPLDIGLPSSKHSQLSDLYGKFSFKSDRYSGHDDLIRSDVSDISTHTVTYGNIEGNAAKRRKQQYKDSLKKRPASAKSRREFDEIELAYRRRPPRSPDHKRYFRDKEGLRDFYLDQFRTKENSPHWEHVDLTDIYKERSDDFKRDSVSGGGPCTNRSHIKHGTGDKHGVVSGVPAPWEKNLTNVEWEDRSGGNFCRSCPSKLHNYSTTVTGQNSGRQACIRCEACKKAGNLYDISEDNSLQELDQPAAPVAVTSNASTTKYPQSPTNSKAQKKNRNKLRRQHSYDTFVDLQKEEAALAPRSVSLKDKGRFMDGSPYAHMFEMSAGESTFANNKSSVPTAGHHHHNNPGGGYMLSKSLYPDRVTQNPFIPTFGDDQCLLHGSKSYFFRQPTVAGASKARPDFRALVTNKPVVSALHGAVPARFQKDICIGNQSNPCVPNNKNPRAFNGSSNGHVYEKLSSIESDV
- test-description: Two-electrode voltage-clamp recordings from Xenopus laevis oocytes, GluN2B
- condition-notes: Table 1; glutamate 100 μM, glycine 30 μM; Hill fit; read-out: EC50 Glu N2B
Quick list: EC50 per entry.
# unit: µM | format: bare number

Illustrative cases are given below, each with its answer.
Cc1ccc(-c2csc3ncn(CC(=O)N4CCCC4)c(=O)c23)cc1 : 109
O=C(Cn1cnc2scc(-c3ccc(I)cc3)c2c1=O)N1CCCC1 : 75
Cc1sc2ncn(CC(=O)N3CCCC3)c(=O)c2c1-c1cccc(Cl)c1 : 16
Cc1sc2ncn(CC(=O)N3CCCC3)c(=O)c2c1-c1ccc(F)cc1 : 54
Cc1sc2ncn(CC(=O)N3CCCC3)c(=O)c2c1-c1cccc(I)c1 : 3.7
Cc1sc2ncn(CC(=O)N3CCCC3)c(=O)c2c1-c1ccccc1 : 15

Data request, read-out EC50, for `Cc1ccc(-c2c(C)sc3ncn(CC(=O)N4CCCC4)c(=O)c23)cc1C` 7.9

For the compound `Cc1sc2ncn(CC(=O)N3CCCC3)c(=O)c2c1-c1cccc(-n2cncn2)c1` , what EC50 is on record? 293

So what does the record say about EC50 for `Cc1sc2ncn(CC(=O)N3CCCC3)c(=O)c2c1-c1cccc(N=[N+]=[N-])c1` ? 23.8
